B1: library; numbered along this chain (parent)
chain: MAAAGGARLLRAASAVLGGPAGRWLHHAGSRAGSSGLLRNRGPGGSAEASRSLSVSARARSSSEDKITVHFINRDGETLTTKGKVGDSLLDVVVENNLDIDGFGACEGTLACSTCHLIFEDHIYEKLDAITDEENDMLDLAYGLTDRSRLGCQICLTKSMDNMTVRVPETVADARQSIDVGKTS

Variants of: B1
Test: scaled log2 fold change in cell abundance, elesclomol vs control (0 = silent mean, 1 = nonsense mean) (scaled log2 ratio); higher = higher viability under elesclomol (loss of FDX1 cuproptosis function);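 note: variant abundance is its share of total variant reads in each endpoint sample, from next-generation sequencing of the integrated ORF PCR-amplified out of genomic DNA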
Conditions: with ABC1 FDX1 KO; elesclomol 5 nM; glucose 10 mM; 14 days
quantity_name: scaled log2 fold change
Reply with the value as a number alone.

Query: # get_value(readout='scaled log2 fold change', item= "G181K" )
Result: 0.227

***
Query: Looking for the measured scaled log2 fold change of "H122E" , can you help?
Result: 0.137

Query: Repeat for the following variant: "G151R"
Result: 1.11

Query: Okay, and "T170R" ?
Result: -0.159

Query: Would you mind doing "E77I" as well?
Result: -0.922

Query: Consider next the variant "T131E" in the same way.
Result: 0.357

Query: Please do the same for "L37E" as well.
Result: -0.0101

Query: Then what about the variant "D99E" ?
Result: 0.144

Query: Next variant up: "R58G"
Result: -0.484

Query: # iterate: "L17N"
Result: 0.306

Query: Try this variant too: "G19P"
Result: 0.54

Query: Now give it for "G18E" too.
Result: -0.165
